B1: library; a variant is named by its letters at N, in order (parent)
chain: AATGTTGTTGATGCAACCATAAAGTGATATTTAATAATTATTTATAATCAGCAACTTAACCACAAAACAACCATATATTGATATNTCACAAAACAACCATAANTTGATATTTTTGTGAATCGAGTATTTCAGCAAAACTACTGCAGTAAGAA

# Variants of: B1
# ASSAY_NOTES: relative integration efficiency (T-RL orientation) vs wild-type transposon end (log2 (normalized fold change)); transposon end mutated: left end; higher = more efficient transposition
# COND: with VchCAST RNA-guided transposition machinery (E. coli BL21(DE3) host, lacZ target)
Response key: t means relative integration efficiency (log2) >= -0.3; f means relative integration efficiency (log2) < -0.3.

Worked examples follow.
[
  {
    "VARIANT_ANNOTATION": "CG A11C T12G",
    "ASSIGNED_CATEGORY": "f"
  },
  {
    "VARIANT_ANNOTATION": "CG G26T",
    "ASSIGNED_CATEGORY": "f"
  },
  {
    "VARIANT_ANNOTATION": "CG A34T",
    "ASSIGNED_CATEGORY": "t"
  },
  {
    "VARIANT_ANNOTATION": "TA A16C G24T T30A T76A T78G C87A T104G T113A",
    "ASSIGNED_CATEGORY": "t"
  },
  {
    "VARIANT_ANNOTATION": "CG T30C",
    "ASSIGNED_CATEGORY": "t"
  }
]

Okay, next one:
Problem: Hi, just wondering whether CG A88T shows relative integration efficiency (log2) of -0.3 or higher.
Solution: t
